target: Anti-CD28 Fab (SEQ ID NOs: 202, 203); assay: phage binding ELISA on captured Fab;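 also: clonal phage supernatants added briefly to wells pre-incubated with CD28 antigen or with blocking buffer only, then washed, bound phage read by ELISA using HRP-coupled anti-M13 antibody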
Sequence (VH, as listed by the source, chain 1 of 2): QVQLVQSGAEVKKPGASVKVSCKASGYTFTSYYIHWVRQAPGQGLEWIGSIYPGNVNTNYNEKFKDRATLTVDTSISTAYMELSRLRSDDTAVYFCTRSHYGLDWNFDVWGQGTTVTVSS
Sequence (VL, as listed by the source, chain 2 of 2): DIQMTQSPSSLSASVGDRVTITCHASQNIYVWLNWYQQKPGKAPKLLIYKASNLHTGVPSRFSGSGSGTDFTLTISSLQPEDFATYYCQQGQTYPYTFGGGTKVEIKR
experimentalReadout: Anti-CD28 Fab (SEQ ID NOs: 202, 203) signal

> print(dat)
                        binder   val
 1  YCEGHIEPYMQKCL [Phage-769]  0.99
 2  YCEGHSWIYIAKCL [Phage-766]     1
 3  YCDGHLPRFMVKCL [Phage-839]  0.69
 4  YCEGHISEYMGKCL [Phage-808]  0.88
 5  YCDGHAAMYMSKCL [Phage-870]   0.5
 6  YCEGHSSAYMAKCL [Phage-804]   0.9
 7  YCAGHAAIYMAKCL [Phage-814]  0.85
 8  YCDGHKPEYMDKCL [Phage-770]  0.99
 9  YCEGHAREYMDKCL [Phage-820]   0.8
10  YCQGHAPWYMVKCL [Phage-840]  0.69
11  YCEGHSSEYLGKCL [Phage-750]  1.05
12  YCDGHWPGYLWKCL [Phage-883]  0.42
13  YCQGHFPQYMAKCL [Phage-777]  0.97
14  YCVGHLPLYMPNCL [Phage-842]  0.68
15  YCAGHTQEYMLKCL [Phage-824]  0.78
16  YCAGHLDEYMEKCL [Phage-885]   0.4

Entry source: patent US20260274955A1
